species on record: Homo sapiens; experiment: Selectivity ratio of Kd for galectin-1 (unknown origin) to Kd for galectin-3 (unknown origin)
RESULT_TYPE: Selectivity ratio

SUBSTANCE_SMILES: OC[C@H]1O[C@@H](S[C@@H]2O[C@H](CO)[C@H](O)[C@H](n3cc(-c4cccc(O)c4)nn3)[C@H]2O)[C@H](O)[C@@H](n2cc(-c3cccc(O)c3)nn2)[C@H]1O
RESULT_TYPE: Selectivity ratio
RESULT: 0.6
--
SUBSTANCE_SMILES: [N-]=[N+]=NCCCO[C@@H]1O[C@H](CO)[C@@H](O[C@@H]2O[C@H](CO)[C@H](O)[C@H](OCc3ccc(Oc4ccccc4)cc3)[C@H]2O)[C@H](O)[C@H]1N1C(=O)c2ccccc2C1=O
RESULT_TYPE: Selectivity ratio
RESULT: 230
--
SUBSTANCE_SMILES: OC[C@H]1O[C@@H](S[C@@H]2O[C@H](CO)[C@H](O)[C@H](n3cc(-c4ccccc4)nn3)[C@H]2O)[C@H](O)[C@@H](n2cc(-c3ccccc3)nn2)[C@H]1O
RESULT_TYPE: Selectivity ratio
RESULT: 1
--
SUBSTANCE_SMILES: [N-]=[N+]=NCCCO[C@@H]1O[C@H](CO)[C@@H](O[C@@H]2O[C@H](CO)[C@H](O)[C@H](n3cc(-c4ccc(Oc5ccccc5)cc4)nn3)[C@H]2O)[C@H](O)[C@H]1N1C(=O)c2ccccc2C1=O
RESULT_TYPE: Selectivity ratio
RESULT: 13
--
SUBSTANCE_SMILES: [N-]=[N+]=NCCCO[C@@H]1O[C@H](CO)[C@@H](O[C@@H]2O[C@H](CO)[C@H](O)[C@H](n3cc(-c4ccc(Oc5ccccc5)cc4)nn3)[C@H]2O)[C@H](O)[C@H]1NC(=O)c1ccccc1
RESULT_TYPE: Selectivity ratio
RESULT: 2.4

---

molecular target: Galectin-3 (Homo sapiens)
Sequence (P17931 whole entry): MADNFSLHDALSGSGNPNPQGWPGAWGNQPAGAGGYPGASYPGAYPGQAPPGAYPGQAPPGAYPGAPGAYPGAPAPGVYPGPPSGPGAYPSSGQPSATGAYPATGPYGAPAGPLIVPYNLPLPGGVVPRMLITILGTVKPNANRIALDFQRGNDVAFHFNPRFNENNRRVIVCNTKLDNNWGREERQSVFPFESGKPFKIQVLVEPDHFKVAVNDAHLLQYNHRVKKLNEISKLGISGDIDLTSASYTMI
Sorting guide: entries reporting Kd beneath 2000 nM go in the true (1) pile, the rest go in the false (0) pile.

SUBSTANCE_SMILES: CO[C@@H]1O[C@H](CO)[C@@H](O[C@@H]2O[C@H](CO)[C@H](O)[C@H](O)[C@H]2O)[C@H](O)[C@H]1NC(C)=O
TARGET_SYSTEM: Galectin-3 (Homo sapiens)
GROUP_LABEL: false (0)

SUBSTANCE_SMILES: [N-]=[N+]=NCCCO[C@@H]1O[C@H](CO)[C@@H](O[C@@H]2O[C@H](CO)[C@H](O)[C@H](n3cc(-c4ccc(Oc5ccccc5)cc4)nn3)[C@H]2O)[C@H](O)[C@H]1N1C(=O)c2ccccc2C1=O
TARGET_SYSTEM: Galectin-3 (Homo sapiens)
GROUP_LABEL: false (0)

SUBSTANCE_SMILES: OC[C@H]1O[C@@H](S[C@@H]2O[C@H](CO)[C@H](O)[C@H](n3cc(-c4ccccc4)nn3)[C@H]2O)[C@H](O)[C@@H](n2cc(-c3ccccc3)nn2)[C@H]1O
TARGET_SYSTEM: Galectin-3 (Homo sapiens)
GROUP_LABEL: true (1)

SUBSTANCE_SMILES: OC[C@H]1O[C@@H](S[C@@H]2O[C@H](CO)[C@H](O)[C@H](n3cc(-c4ccc(Oc5ccccc5)cc4)nn3)[C@H]2O)[C@H](O)[C@@H](n2cc(-c3ccc(Oc4ccccc4)cc3)nn2)[C@H]1O
TARGET_SYSTEM: Galectin-3 (Homo sapiens)
GROUP_LABEL: true (1)

SUBSTANCE_SMILES: [N-]=[N+]=NCCCO[C@@H]1O[C@H](CO)[C@@H](O[C@@H]2O[C@H](CO)[C@H](O)[C@H](n3cc(-c4ccc(Oc5ccccc5)cc4)nn3)[C@H]2O)[C@H](O)[C@H]1NC(=O)c1ccccc1
TARGET_SYSTEM: Galectin-3 (Homo sapiens)
GROUP_LABEL: false (0)

---

We begin with a simple list: items and their reported Ratio.
target: Galectin-1 (Homo sapiens, UniProt P09382); test: Ratio of LacNAc-beta-OMe Kd to compound Kd for galectin-1 (unknown origin)
Sequence (P09382 whole entry): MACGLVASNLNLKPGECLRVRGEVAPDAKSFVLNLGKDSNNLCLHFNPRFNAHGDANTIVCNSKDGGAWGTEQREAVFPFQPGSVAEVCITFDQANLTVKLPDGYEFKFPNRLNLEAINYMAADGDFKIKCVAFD

SUBSTANCE_SMILES: [N-]=[N+]=NCCCO[C@@H]1O[C@H](CO)[C@@H](O[C@@H]2O[C@H](CO)[C@H](O)[C@H](n3cc(-c4ccc(Oc5ccccc5)cc4)nn3)[C@H]2O)[C@H](O)[C@H]1N1C(=O)c2ccccc2C1=O
Ratio: 2.5
//
SUBSTANCE_SMILES: [N-]=[N+]=NCCCO[C@@H]1O[C@H](CO)[C@@H](O[C@@H]2O[C@H](CO)[C@H](O)[C@H](OCc3ccc(Oc4ccccc4)cc3)[C@H]2O)[C@H](O)[C@H]1NC(=O)c1ccccc1
Ratio: 0.4
//
SUBSTANCE_SMILES: [N-]=[N+]=NCCCO[C@@H]1O[C@H](CO)[C@@H](O[C@@H]2O[C@H](CO)[C@H](O)[C@H](OCc3ccc(Oc4ccccc4)cc3)[C@H]2O)[C@H](O)[C@H]1N1C(=O)c2ccccc2C1=O
Ratio: 0.3
//
SUBSTANCE_SMILES: [N-]=[N+]=NCCCO[C@@H]1O[C@H](CO)[C@@H](O[C@@H]2O[C@H](CO)[C@H](O)[C@H](n3cc(-c4ccc(Oc5ccccc5)cc4)nn3)[C@H]2O)[C@H](O)[C@H]1NC(=O)c1ccccc1
Ratio: 10

Values from ChEMBL document CHEMBL2311254
